Molecular target: Endoribonuclease toxin MazF (Escherichia coli K-12)
Sequence (P0AE70 whole entry): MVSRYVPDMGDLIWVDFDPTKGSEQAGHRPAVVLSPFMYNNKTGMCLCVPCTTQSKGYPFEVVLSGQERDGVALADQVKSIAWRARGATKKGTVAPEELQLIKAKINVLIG
Assay: fluorescent RNA oligo signal without MazF, dose response, counter-screen for MazEF activator project, biochemical, fluorescence, single-stranded RNase substrate (AID 588502)
Type: functional
Active and inactive are the calls of the source.
parameter: EC50

compound: Oc1cc(O)cc(/C=C/c2ccc(O)c(O)c2)c1 [PICEATANNOL]
value.reported: > 99 µM (inactive)
--
compound: O=[N+]([O-])c1ccc(Nc2ccccc2O)c2nonc12
value.reported: > 99 µM (inactive)
--
compound: Cc1ccc(CNC(=O)c2ccc(CNS(=O)(=O)c3ccc4c(c3)C(C)(C)C(=O)N4C)cc2)o1
value.reported: > 99 µM (inactive)
--
compound: O=[N+]([O-])c1ccc(S(=O)(=O)N[N-][C+]2CCCCC2)cc1
value.reported: 7.03 µM (active)

====

Reported AC50 values for a set of molecules
biological target: Cytochrome P450 2C19 (Homo sapiens); assay: Cytochrome panel assay with activity outcomes. Panel member name: p450-cyp2c19 Compounds with AC50 equal or less than 10 uM are considered active; type: functional; conditions: read-out: AC50
Sequence (P33261 whole entry): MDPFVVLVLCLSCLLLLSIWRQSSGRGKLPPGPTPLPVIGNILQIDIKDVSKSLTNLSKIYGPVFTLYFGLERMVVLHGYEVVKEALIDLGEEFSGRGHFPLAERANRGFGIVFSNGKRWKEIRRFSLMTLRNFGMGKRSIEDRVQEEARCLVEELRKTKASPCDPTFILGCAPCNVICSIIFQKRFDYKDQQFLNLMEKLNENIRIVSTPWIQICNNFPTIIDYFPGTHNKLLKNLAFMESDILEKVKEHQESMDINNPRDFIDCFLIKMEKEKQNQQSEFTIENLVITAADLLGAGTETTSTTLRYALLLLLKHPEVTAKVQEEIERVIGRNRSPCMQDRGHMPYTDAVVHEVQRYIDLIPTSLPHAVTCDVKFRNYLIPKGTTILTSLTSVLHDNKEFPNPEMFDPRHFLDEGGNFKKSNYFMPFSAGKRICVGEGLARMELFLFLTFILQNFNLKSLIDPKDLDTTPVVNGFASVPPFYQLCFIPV

molecule: CCN=C(S)NNC(=O)c1cccc(Br)c1
AC50: 5.62 µM (inconclusive)
--
molecule: CCCOC(=O)c1c(-c2ccccc2)nc(CC)c(C(=O)SCC)c1CCC
AC50: 39.8 µM (inconclusive)
--
molecule: CCCS(=O)(=O)N1CCCC(C(=O)NCCCN2CCN(c3ccccc3F)CC2)C1 (stereo unspecified)
AC50: 39.8 µM (inconclusive)
--
molecule: O=C(c1ccncc1)N1CCC[C@@]2(CCN(c3ncccn3)C2)C1
AC50: 25.1 µM (inconclusive)
--
molecule: O=C(c1csnn1)N1CCC2(CC1)CN(c1ccccc1)C2
AC50: 39.8 µM (inconclusive)
--
molecule: CCOC(=O)c1c(C)c(C(=O)N2CCN(C(=O)c3ccco3)CC2)c(C)n1C
AC50: 28.2 µM (inconclusive)
--
molecule: O=C(OC1CCN(c2ncc(C(F)(F)F)cc2Cl)CC1)c1cccc(C(F)(F)F)c1
AC50: 8.91 µM (inconclusive)
--
molecule: CCCCc1c(O)n(-c2ccccc2)c(SCCN(C)C)nc1=O
AC50: 6.31 µM (inconclusive)
--
molecule: Oc1c2c(nc3c(-c4ccccc4)cnn13)CCC2
AC50: 31.6 µM (inconclusive)
--
molecule: CCCC(=O)N1CCN(c2ccc(NC(=O)c3sc4ccccc4c3Cl)cc2)CC1
AC50: 0.158 µM (inconclusive)
--
molecule: O=C1/C(=N\O)Cc2ccccc21
AC50: 39.8 µM (inconclusive)
--
molecule: CN(C)c1ncc2nc(-c3ccccc3)c(=O)n(CCC#N)c2n1
AC50: 39.8 µM (inconclusive)
--
molecule: O=[N+]([O-])c1cccc2c(Br)n[nH]c12
AC50: 0.251 µM (inconclusive)
--
molecule: CN(C)c1ccc(-c2nc(N(C)Cc3ccco3)c3ccccc3n2)cc1
AC50: 20 µM (inconclusive)
--
molecule: C[C@@H]1CCCN(CP(=O)(c2ccccc2)c2ccccc2)C1
AC50: 0.126 µM (inconclusive)
--
molecule: CN(C)C(=O)c1ccc(-c2nccc(N(C)Cc3ccco3)n2)cc1
AC50: 25.1 µM (inconclusive)
